Listed here are binders together with their documented ELISA.
# TESTED TARGET: biotinylated SARS-CoV-2 S1 variant B.1.351 (Example 5) (SARS-CoV-2) (UniProt P0DTC2)
# EXPERIMENT DESCRIPTION: phage ELISA screening
Number, no unit, nothing else.

12-11 (antibody, V domains shown) VH: QVQLVESGGGVVQPGRSLRLSCAASGFSFGGYGMHWVRQAPGKGLEWVAVISYDGSNEYYADSVKGRFTISRDNSKNTLYLQMNSLRAEDTAVYYCAKSYSGSYSSYFDYWGQGTLVTVSS VL: EIVLTQSPATLSLSPGERATLSCRASQSVGSYLAWYQQKPGQAPRLLIYDAVNRATGIPARFSGSGSGTDFTLTISSLEPEDFAVYYCQQRFTWPTTFGGGTKVEIK | 18.8

Shifting focus to the binder that follows.
Challenge: For 11-1 (antibody, V domains shown) VH: QVQLVESGGGVVQPGRSLRLSCAASGFTFGSYGMHWVRQAPGKGLEWVAVISYDGGDEYYADSVKGRFTISRDNSKNTLYLQMNSLRAEDTAVYYCARDISRYGYYGMDVWGQGTLVTVSS VL: EIVLTQSPATLSLSPGERATLSCRASQSLGSFLAWYQQKPGQAPRLLIYDASNRATGIPARFSGSGSGTDFTLTISSLEPEDFAVYYCQQRALWPRLTFGGGTKVEIK , what is its reported ELISA?
Response given: 21.7
